TEST METHOD NOTES: Hematology assays in cynomolgus monkeys (Example 46)
Format: in vivo
MEASUREMENT SETUP: Day-14
Strand notation (5' to 3'): a small letter for the sugar, then the base; units joined by * are phosphorothioate-linked, units joined directly phosphodiester-linked; [ ] holds rarer units or linkages, { } end groups; capitals alone tell only the bases. e = 2'-O-(2-methoxyethyl) (MOE); [5mC] = 5-methylcytosine; d = 2'-deoxy (DNA)
For each entry below, report its MCHC value.
Express your answer in g/dL, writing the number without its unit.

Ask: MCHC for ISIS 445531: 5-8-5 or 6-8-6 MOE microwalk gapmer (Table 44) (antisense eG*eG*e[5mC]*eA*eT*dT*dG*dG*dT*dG*d[5mC]*dA*d[5mC]*eA*eG*eT*eT*eT) ?
Reply: 30.9

Ask: Try this substance too: ISIS 416850: MOE gapmer, nucleobases 1275 to 1318 of SEQ ID NO: 1 (Table 8) (antisense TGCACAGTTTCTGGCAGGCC; MOE gapmer, wing and gap sizes not given here)
Reply: 32.0

Ask: Try this substance too: ISIS 416858: MOE gapmer, nucleobases 1275 to 1318 of SEQ ID NO: 1 (Table 8) (antisense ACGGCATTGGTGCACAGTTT; MOE gapmer, wing and gap sizes not given here)
Reply: 31.1

Ask: Try this substance too: ISIS 449707: 3-8-3, 4-8-4, 2-10-2, 3-10-3 or 4-10-4 MOE microwalk gapmer (Table 46) (antisense e[5mC]*eA*e[5mC]*eA*dG*dT*dT*dT*d[5mC]*dT*dG*dG*e[5mC]*eA*eG*eG)
Reply: 31.4

Ask: Try this substance too: ISIS 445522: 5-8-5 or 6-8-6 MOE microwalk gapmer (Table 44) (antisense eG*e[5mC]*eA*e[5mC]*eA*dG*dT*dT*dT*d[5mC]*dT*dG*dG*e[5mC]*eA*eG*eG*e[5mC])
Reply: 31.4

Ask: Try this substance too: ISIS 449709: 3-8-3, 4-8-4, 2-10-2, 3-10-3 or 4-10-4 MOE microwalk gapmer (Table 46) (antisense eG*e[5mC]*eA*e[5mC]*dA*dG*dT*dT*dT*d[5mC]*dT*dG*dG*d[5mC]*eA*eG*eG*e[5mC])
Reply: 31.4

Ask: Try this substance too: ISIS 449711: 3-8-3, 4-8-4, 2-10-2, 3-10-3 or 4-10-4 MOE microwalk gapmer (Table 46) (antisense eA*e[5mC]*dA*dG*dT*dT*dT*d[5mC]*dT*dG*dG*d[5mC]*eA*eG)
Reply: 31.0

Ask: Try this substance too: ISIS 449708: 3-8-3, 4-8-4, 2-10-2, 3-10-3 or 4-10-4 MOE microwalk gapmer (Table 46) (antisense eA*e[5mC]*eA*dG*dT*dT*dT*d[5mC]*dT*dG*dG*e[5mC]*eA*eG)
Reply: 31.4

Ask: Try this substance too: ISIS 449710: 3-8-3, 4-8-4, 2-10-2, 3-10-3 or 4-10-4 MOE microwalk gapmer (Table 46) (antisense e[5mC]*eA*e[5mC]*dA*dG*dT*dT*dT*d[5mC]*dT*dG*dG*d[5mC]*eA*eG*eG)
Reply: 31.2
